Tested on: Hepatitis C virus
Test: Antiviral activity against Hepatitis C virus genotype 1b replicon infected in clone A cells assessed as inhibition of viral replication by RT-PCR analysis
Type: functional, Hepacivirus hominis
measuredMetric: EC90 (µM)

# molecule, observedMeasurement
rows = [
    ("CC(C)Oc1nc(N)nc2c1ncn2[C@@H]1O[C@@H]2COP(=O)(OC3CCCC3)O[C@H]2[C@@]1(C)F (some centres undefined)", 0.184),
    ("CC(C)Oc1nc(N)nc2c1ncn2[C@@H]1O[C@@H]2COP(=O)(OC3CCC3)O[C@H]2[C@@]1(C)F (some centres undefined)", 0.224),
    ("COc1nc(N)nc2c1ncn2[C@@H]1O[C@@H]2COP(=O)(OC(C)C)O[C@H]2[C@@]1(C)F (some centres undefined)", 0.68),
    ("COc1nc(N)nc2c1ncn2[C@@H]1O[C@@H]2COP(=O)(OC3CCC3)O[C@H]2[C@@]1(C)F (some centres undefined)", 0.135),
]

----------
Experiment: Half life in human plasma
Type: ADME, cell-free
measuredMetric: half-life

# compound, observedMeasurement
rows = [
    ("CCOc1nc(N)nc2c1ncn2[C@@H]1O[C@@H]2COP(=O)(OC(C)C)O[C@H]2[C@@]1(C)F (stereo partly drawn)", "> 24 h"),
    ("COc1nc(N)nc2c1ncn2[C@@H]1O[C@@H]2COP(=O)(OC3CCC3)O[C@H]2[C@@]1(C)F (stereo partly drawn)", "18.3 h"),
    ("CC(C)Oc1nc(N)nc2c1ncn2[C@@H]1O[C@@H]2COP(=O)(OC3CCC3)O[C@H]2[C@@]1(C)F (stereo partly drawn)", "11.7 h"),
    ("COc1nc(N)nc2c1ncn2[C@@H]1O[C@H](COP(=O)(N[C@@H](C)C(=O)OC(C)C)Oc2ccccc2)[C@@H](O)[C@@]1(C)F (stereo partly drawn)", "> 24 h"),
    ("COc1nc(N)nc2c1ncn2[C@@H]1O[C@@H]2COP(=O)(OC3CCCC3)O[C@H]2[C@@]1(C)F (stereo partly drawn)", "> 24 h"),
    ("COc1nc(N)nc2c1ncn2[C@@H]1O[C@@H]2COP(=O)(OC(C)C)O[C@H]2[C@@]1(C)F (stereo partly drawn)", "> 24 h"),
    ("CC(C)Oc1nc(N)nc2c1ncn2[C@@H]1O[C@@H]2COP(=O)(OC(C)C)O[C@H]2[C@@]1(C)F (stereo partly drawn)", "> 24 h"),
    ("CC(C)Oc1nc(N)nc2c1ncn2[C@@H]1O[C@@H]2COP(=O)(OC3CCCC3)O[C@H]2[C@@]1(C)F (stereo partly drawn)", "> 23.4 h"),
]

----------
Assay: Tmax in rat at 40 mg/kg, po administered QD measured after 7 days
Format: ADME, organism-based
Set-up: dose 40 mg/kg, route oral
Details: in vivo

# compound, Tmax, h
data = [
    ("COc1nc(N)nc2c1ncn2[C@@H]1O[C@@H]2COP(=O)(OC3CCC3)O[C@H]2[C@@]1(C)F (stereo partly drawn)", 4),
    ("COc1nc(N)nc2c1ncn2[C@@H]1O[C@@H]2COP(=O)(OC3CCCC3)O[C@H]2[C@@]1(C)F (stereo partly drawn)", 1.67),
    ("CC(C)Oc1nc(N)nc2c1ncn2[C@@H]1O[C@@H]2COP(=O)(OC3CCCC3)O[C@H]2[C@@]1(C)F (stereo partly drawn)", 2.33),
]
